assay: Fraction unbound in Sprague-Dawley rat brain
Readout Label: fraction unbound

[[record]]
compound = "Cc1ncoc1-c1nnc(SCCCN2CC3CCN(c4ccc(C(F)(F)F)cc4F)C3C2)n1C (stereo in doubt; 8b)"
readout_label = "fraction unbound"
measured_value = 0.014

[[record]]
compound = "Cn1c(SCCCN2CC3CCN(c4ccc(C(F)(F)F)cc4)C3C2)nnc1-c1cc[nH]c(=O)c1 (stereo in doubt; 55b)"
readout_label = "fraction unbound"
measured_value = 0.022

[[record]]
compound = "Cn1c(SCCCN2CC3CCN(c4ccccc4)C3C2)nnc1C1CCOCC1 (stereo in doubt; 62a)"
readout_label = "fraction unbound"
measured_value = 0.33

[[record]]
compound = "CC(C)Oc1ccccc1N1CCC2CN(CCCSc3nnc(-c4cnccn4)n3C)CC21 (stereo in doubt; 35b)"
readout_label = "fraction unbound"
measured_value = 0.13

[[record]]
compound = "Cc1ncoc1-c1nnc(SCCCN2CC3CCN(c4ccc(F)cc4)C3C2)n1C (stereo in doubt; 9a)"
readout_label = "fraction unbound"
measured_value = 0.095


====

Reported solubility by item:
assay: Solubility of compound; type: physicochemical
Readout Label: solubility (µg/mL)

[[record]]
compound = "Cc1ncoc1-c1nnc(SCCCN2CC3CCN(c4ccc(C(F)(F)F)cc4)C3C2)n1C.Cl (stereo not given)"
unit_text = "µg/mL"
qualifier = "="
measured_value = 300

[[record]]
compound = "Cn1c(SCCCN2CC3CCN(c4ccc(C(F)(F)F)cc4)C3C2)nnc1-c1cc[nH]c(=O)c1 (stereo in doubt; 55b)"
unit_text = "µg/mL"
qualifier = "="
measured_value = 200

[[record]]
compound = "Cc1ncoc1-c1nnc(SCCCN2CC3CCN(c4cccc(C#N)c4)C3C2)n1C (stereo in doubt; 12a)"
unit_text = "µg/mL"
qualifier = ">"
measured_value = 2200

[[record]]
compound = "Cn1c(SCCCN2CC3CCN(c4ccccc4)C3C2)nnc1C1CCOCC1 (stereo in doubt; 62a)"
unit_text = "µg/mL"
qualifier = ">"
measured_value = 2000

[[record]]
compound = "Cc1ncoc1-c1nnc(SCCCN2CC3CCN(c4ccccc4)C3C2)n1C.Cl (stereo not given)"
unit_text = "µg/mL"
qualifier = ">"
measured_value = 2000


====

target: Voltage-gated inwardly rectifying potassium channel KCNH2 (Homo sapiens); assay: Inhibition of human ERG tail current expressed in HEK293 cells after 5 mins by patch clamp assay
Sequence (Q12809 whole entry): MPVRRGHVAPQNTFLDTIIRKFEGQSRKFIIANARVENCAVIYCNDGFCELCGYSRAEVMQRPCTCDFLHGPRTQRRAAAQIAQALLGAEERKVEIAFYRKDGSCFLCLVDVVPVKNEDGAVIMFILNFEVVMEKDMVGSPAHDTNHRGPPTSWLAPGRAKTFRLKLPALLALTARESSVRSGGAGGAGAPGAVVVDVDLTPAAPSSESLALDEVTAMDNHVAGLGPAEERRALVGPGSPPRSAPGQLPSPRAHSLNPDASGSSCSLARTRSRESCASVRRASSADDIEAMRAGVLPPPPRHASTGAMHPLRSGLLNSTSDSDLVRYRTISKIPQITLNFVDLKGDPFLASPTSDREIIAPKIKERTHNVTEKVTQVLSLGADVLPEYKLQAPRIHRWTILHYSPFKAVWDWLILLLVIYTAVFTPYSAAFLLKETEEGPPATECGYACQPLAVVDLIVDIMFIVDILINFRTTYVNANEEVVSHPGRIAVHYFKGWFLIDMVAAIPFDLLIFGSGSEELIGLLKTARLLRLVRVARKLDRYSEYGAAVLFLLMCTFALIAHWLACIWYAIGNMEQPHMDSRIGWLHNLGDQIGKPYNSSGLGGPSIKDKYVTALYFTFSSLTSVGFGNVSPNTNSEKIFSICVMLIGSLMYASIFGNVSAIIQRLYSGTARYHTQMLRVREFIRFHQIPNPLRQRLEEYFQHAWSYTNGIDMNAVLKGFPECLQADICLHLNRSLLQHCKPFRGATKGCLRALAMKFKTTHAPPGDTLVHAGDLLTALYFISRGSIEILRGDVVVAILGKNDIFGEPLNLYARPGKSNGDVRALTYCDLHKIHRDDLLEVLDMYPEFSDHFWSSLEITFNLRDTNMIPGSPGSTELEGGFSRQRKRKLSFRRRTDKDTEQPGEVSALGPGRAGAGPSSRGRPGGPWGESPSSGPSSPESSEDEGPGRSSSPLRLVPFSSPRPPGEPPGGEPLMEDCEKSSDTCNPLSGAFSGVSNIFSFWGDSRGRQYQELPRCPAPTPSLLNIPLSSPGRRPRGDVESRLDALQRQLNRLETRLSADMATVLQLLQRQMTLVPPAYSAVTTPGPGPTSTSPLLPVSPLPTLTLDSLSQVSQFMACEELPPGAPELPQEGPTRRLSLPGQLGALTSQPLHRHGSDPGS
Reported log10 IC50 by item:
Readout Label: log10 IC50 (log10 of the value in nM)

[[record]]
molecule = "Cc1ncoc1-c1nnc(SCCCN2CC3CCN(c4ccc(C(F)(F)F)cc4F)C3C2)n1C (stereo in doubt; 8b)"
measured_value = 2.60

[[record]]
molecule = "Cc1ncoc1-c1nnc(SCCCN2CC3CCN(c4ccccc4)C3C2)n1C (stereo in doubt; 6a)"
measured_value = 3.20

[[record]]
molecule = "Cc1ncoc1-c1nnc(SCCCN2CC3CCN(c4cccc(C#N)c4)C3C2)n1C (stereo in doubt; 12b)"
measured_value = 2.90

[[record]]
molecule = "Cc1ncoc1-c1nnc(SCCCN2CC3CCN(c4ccccc4)C3C2)n1C (stereo in doubt; 6b)"
measured_value = 3.10

[[record]]
molecule = "Cc1ncoc1-c1nnc(SCCCN2CC3CCN(c4ccc(C(F)(F)F)cc4F)C3C2)n1C (racemic)"
measured_value = 4.20

[[record]]
molecule = "Cc1ncoc1-c1nnc(SCCCN2CC3CCN(c4ccc(C(F)(F)F)cc4F)C3C2)n1C (stereo in doubt; 8a)"
measured_value = 2.30

[[record]]
molecule = "Cc1ncoc1-c1nnc(SCCCN2CC3CCN(c4ccc(Cl)cc4Cl)C3C2)n1C (racemic)"
measured_value = 3.10


====

Reported Ki by item:
biological target: D(2) dopamine receptor (Homo sapiens, UniProt P14416); assay: Displacement of [3H]-spiperone from human dopamine D2 receptor expressed in CHO-K1 cell membranes after 120 mins by liquid scintillation counter method
Sequence (P14416 whole entry): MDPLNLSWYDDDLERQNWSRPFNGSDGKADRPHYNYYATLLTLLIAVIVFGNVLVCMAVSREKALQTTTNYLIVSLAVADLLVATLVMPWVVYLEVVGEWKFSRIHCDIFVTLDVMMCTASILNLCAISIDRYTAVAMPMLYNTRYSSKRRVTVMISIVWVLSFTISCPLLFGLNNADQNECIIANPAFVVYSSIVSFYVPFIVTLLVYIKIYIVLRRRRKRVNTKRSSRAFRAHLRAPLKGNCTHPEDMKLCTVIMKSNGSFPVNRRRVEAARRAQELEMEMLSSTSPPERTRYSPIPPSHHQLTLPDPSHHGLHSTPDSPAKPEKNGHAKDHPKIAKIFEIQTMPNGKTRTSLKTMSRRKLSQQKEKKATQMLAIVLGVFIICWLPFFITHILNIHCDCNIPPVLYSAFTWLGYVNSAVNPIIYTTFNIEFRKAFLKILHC
Readout Label: Ki (µM)

[[record]]
compound = "COc1cc(N2CCC3CN(CCCSc4nnc(-c5cnccn5)n4C)CC32)ccc1F (racemic)"
subject_of_test = "D(2) dopamine receptor (Homo sapiens, UniProt P14416)"
measured_value = 0.501

[[record]]
compound = "Cc1ccc(N2CCC3CN(CCCSc4nnc(-c5cnccn5)n4C)CC32)cc1 (racemic)"
subject_of_test = "D(2) dopamine receptor (Homo sapiens, UniProt P14416)"
measured_value = 0.631

[[record]]
compound = "Cc1ncoc1-c1nnc(SCCCN2CC3CCN(c4ccc(OC(F)(F)F)cc4)C3C2)n1C (racemic)"
subject_of_test = "D(2) dopamine receptor (Homo sapiens, UniProt P14416)"
measured_value = 0.631

[[record]]
compound = "Cn1c(SCCCN2CC3CCN(c4ccc(C(F)(F)F)cc4)C3C2)nnc1-c1ccc(=O)[nH]c1 (racemic)"
subject_of_test = "D(2) dopamine receptor (Homo sapiens, UniProt P14416)"
measured_value = 0.398

[[record]]
compound = "Cn1c(SCCCN2CC3CCN(c4ccc(C(F)(F)F)cc4)C3C2)nnc1N1CCOCC1 (stereo in doubt; 61b)"
subject_of_test = "D(2) dopamine receptor (Homo sapiens, UniProt P14416)"
measured_value = 0.2

[[record]]
compound = "Cc1cc(-c2nnc(SCCCN3CC4CCN(c5ccc(C(F)(F)F)cc5)C4C3)n2C)on1 (racemic)"
subject_of_test = "D(2) dopamine receptor (Homo sapiens, UniProt P14416)"
measured_value = 0.158

[[record]]
compound = "Cn1c(SCCCN2CC3CCN(c4cccc(C(F)(F)F)c4)C3C2)nnc1-c1cnccn1 (racemic)"
subject_of_test = "D(2) dopamine receptor (Homo sapiens, UniProt P14416)"
measured_value = 0.0316

[[record]]
compound = "CC(C)Oc1ccccc1N1CCC2CN(CCCSc3nnc(-c4cnccn4)n3C)CC21 (stereo in doubt; 35a)"
subject_of_test = "D(2) dopamine receptor (Homo sapiens, UniProt P14416)"
measured_value = 5.01

[[record]]
compound = "Cn1c(SCCCN2CC3CCN(c4ccc(OC(F)(F)F)cc4)C3C2)nnc1-c1cnccn1 (racemic)"
subject_of_test = "D(2) dopamine receptor (Homo sapiens, UniProt P14416)"
measured_value = 0.316

[[record]]
compound = "Cn1c(SCCCN2CC3CCN(c4ccc(C(F)(F)F)cc4)C3C2)nnc1-c1cccnn1 (racemic)"
subject_of_test = "D(2) dopamine receptor (Homo sapiens, UniProt P14416)"
measured_value = 0.316

[[record]]
compound = "Cn1c(SCCCN2CC3CCN(c4ccccc4C(F)(F)F)C3C2)nnc1-c1cccnc1 (stereo in doubt; 52b)"
subject_of_test = "D(2) dopamine receptor (Homo sapiens, UniProt P14416)"
measured_value = 1.26

[[record]]
compound = "Cc1ncoc1-c1nnc(SCCCN2CC3CCN(c4ccc(F)cc4)C3C2)n1C (stereo in doubt; 9b)"
subject_of_test = "D(2) dopamine receptor (Homo sapiens, UniProt P14416)"
measured_value = 0.2

[[record]]
compound = "COc1ccccc1N1CCC2CN(CCCSc3nnc(-c4cnccn4)n3C)CC21 (racemic)"
subject_of_test = "D(2) dopamine receptor (Homo sapiens, UniProt P14416)"
measured_value = 0.316

[[record]]
compound = "Cn1c(SCCCN2CC3CCN(c4c(F)cccc4F)C3C2)nnc1-c1cnccn1 (racemic)"
subject_of_test = "D(2) dopamine receptor (Homo sapiens, UniProt P14416)"
measured_value = 0.631

[[record]]
compound = "Cn1c(SCCCN2CC3CCN(c4ccc(C#N)cc4)C3C2)nnc1-c1cnccn1 (racemic)"
subject_of_test = "D(2) dopamine receptor (Homo sapiens, UniProt P14416)"
measured_value = 6.31

[[record]]
compound = "Cn1c(SCCCN2CC3CCN(c4ccc(F)cc4)C3C2)nnc1C1CCCCC1 (racemic)"
subject_of_test = "D(2) dopamine receptor (Homo sapiens, UniProt P14416)"
measured_value = 0.794

[[record]]
compound = "Cn1c(SCCCN2CC3CCN(c4ccc(C(F)(F)F)cc4)C3C2)nnc1-c1cc[nH]c(=O)c1 (stereo in doubt; 55b)"
subject_of_test = "D(2) dopamine receptor (Homo sapiens, UniProt P14416)"
measured_value = 0.631


====

molecular target: D(2) dopamine receptor (Homo sapiens); assay: Displacement of [3H]-spiperone from human dopamine D2 receptor expressed in CHO-K1 cell membranes after 120 mins by liquid scintillation counter method
Reported Ki by item:
Readout Label: Ki (nM)

[[record]]
compound = "Cn1c(SCCCN2CC3CCN(c4ccc(C(F)(F)F)cc4)C3C2)nnc1-c1ccnnc1 (racemic)"
unit_text = "nM"
measured_value = 631

[[record]]
compound = "Cc1ncoc1-c1nnc(SCCCN2CC3CCN(c4ccc(F)cc4)C3C2)n1C (stereo in doubt; 9a)"
unit_text = "nM"
measured_value = 126

[[record]]
compound = "Cc1ncoc1-c1nnc(SCCCN2CC3CCN(c4cc(Cl)cc(Cl)c4)C3C2)n1C (racemic)"
unit_text = "nM"
measured_value = 10

[[record]]
compound = "Cn1c(SCCCN2CC3CCN(c4ccc(C(F)(F)F)cc4)C3C2)nnc1-c1cnccn1 (stereo in doubt; 17b)"
unit_text = "nM"
measured_value = 158

[[record]]
compound = "CC(C)Oc1ccccc1N1CCC2CN(CCCSc3nnc(-c4cnccn4)n3C)CC21 (racemic)"
unit_text = "nM"
measured_value = 251

[[record]]
compound = "Cc1ncoc1-c1nnc(SCCCN2CC3CCN(c4ccccc4OC(F)(F)F)C3C2)n1C (racemic)"
unit_text = "nM"
measured_value = 20

[[record]]
compound = "Cn1c(SCCCN2CC3CCN(c4c(F)cc(F)cc4F)C3C2)nnc1-c1cnccn1 (racemic)"
unit_text = "nM"
measured_value = 631

[[record]]
compound = "Cn1c(SCCCN2CC3CCN(c4c(F)cccc4C(F)(F)F)C3C2)nnc1-c1cnccn1 (racemic)"
unit_text = "nM"
measured_value = 398


Every entry's value here was drawn from ChEMBL document CHEMBL3774368.
